Molecular target: T1, TRAIL (human, UniProt P50591 114-281)
T1 construct: also called TNF-related apoptosis inducing ligand
T1 sequence (P50591 114-281 limits assumed): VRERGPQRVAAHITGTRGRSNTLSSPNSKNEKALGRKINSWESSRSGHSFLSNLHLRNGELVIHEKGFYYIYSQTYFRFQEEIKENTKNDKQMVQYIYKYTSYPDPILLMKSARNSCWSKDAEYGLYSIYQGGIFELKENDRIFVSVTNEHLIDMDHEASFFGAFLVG
Assay: phage ELISA
Parameter: binding result

Below: 4 binders and their reported binding result.
I003C06 (scFv) scFv: QVQLVQSGAEVKKPGSSVKVSCRASGGSFNHAISWVRQAPGRGLEWMGGILPMYGTANYAQKFQGRVTITADKLTNTVYMDLSRLRYEDTAVYYCARELGLSIVGATTGALDMWGKGTLVTVSSGGGGSGGGGSGGGGSALPVLTQPPSVSVAPGQTATLTCGGTNFGRQSVHWYQQKPGQAPVLAIYHDDVRPSGIPERLSGSKSGNTATLTISRVEAGDEAAYYCQVWDSGSDVVVFGGGTKLTVLG    no binding
I078D02 (scFv) scFv: QVQLQQSGAEVKKPGASVKVSCKASGYTFTSYGISWVRQAPGQGLEWMGWISAYNGNTNYAQKLQGRVTMTTDTSTSTAYMELRSLRSDDTAVYYCARVYYDILTGYNLFFDYWGKGTMVTVSSGGGGSGGGGSGGGGSQSVLTQPASVSGSPGQSITISCTGTSSDVGGYNYVSWYQQHPGKAPKLMIYEGSKRPSGVSNRFSGSKSGNTASLTISGLQAEDEADYYCSSYTTRSTRVFGGGTKLTVLG    no binding
I001C09 (scFv) scFv: GVQLVQSGPEVKKPGASVKVSCTASGYTFTSYGVSWVRQAPGQGLEWIGWISAHNGQTKYAEKFQGRVTMTRNTSISTAYMELSSLRSEDTAVYYCARDGSYDILTGYYIDNYMDVWGKGTMVTVSSGGGGSGGGGSGGGGSSELTQDPAVSVALGQTVRITCQGDSLRSYYTNWFQQKPGQAPLLVVYAKNKRPSGIPDRFSGSSSGNTASLTITGAQAEDEADYYCHSRDSSGNHVLFGGGTKLTVLG    no binding
I075F12 (scFv) scFv: QVQLVQSGAEVKKPGSSVKVSCKASGGTVSSRTISWVRQAPGQGLEWMGGSLPPSGAPIYAQKFQGRVAITADALTNTAFMELRSLKSDDTAVYYCARDQGRYLDLWGQGTMVTVSSGGGGSGGGGSGGGGSAQAVLTQPSSASGTPGQRATISCSGSSSDIGINAVNWYKQLPRTAPKLLIYRNNQRPSGVPDRFSGSKSGTSASLAIIGLQSEDEADYYCATWDDSLTAYVFGTGTKVTVLG    no binding

Now, please, on to the next binder.
Record request: binding result value, item I067F05 (scFv) scFv: QVQLQQSGAEVKKPGSSVKVSCKASGGTFSSYAISWVRQAPGQGLEWMGRIIPIVNMANYAQKFQGRVTLTADKSTGTAYMELTSLRSEDTAVYYCARENYDSLTGYYGAFDIWGKGTMVTVSSGGGGSGGGGSGGGGSQSVLTQPASVSGSPGQSITISCTGTSSDVGGYNYVSWYQQHPGKAPKLMIYEGSKRPSGVSNRFSGSKSGNTASLTISGLQAEDEADYYCSSYTTRSTRVFGGGTKLTVLG
no binding

Ref: patent US20110293610A1
